Reported plate-normalized OD600 growth values follow for various compounds
System: Escherichia coli BW25113
Test name: plate-normalized OD600 growth (mean of duplicates) (OD600 (normalized)); higher = more growth (less inhibition)
Assay context: temperature: 15°C; 48 h; 10 µM
Over roughly 2,300 compounds, “plate-normalized OD600 growth (mean of duplicates)” has its median near 0.29; the lowest 2% begin near 0.22. The list comes from a sample in which the lowest values are over-represented; it also holds close analogues and randomly drawn compounds.
Just the number.

>  <Compound>
O=C(NC1Cc2ccccc2C1)c1cncc(Br)c1

>  <Measured value>
0.281

$$$$

Param readout= plate-normalized OD600 growth; system= Escherichia coli BW25113; entry= `N#C/C(=C\c1ccc(OC(=O)c2cccc([N+](=O)[O-])c2)cc1)C(=O)c1ccccc1` ; returns value.
0.211

Check N#CC(C(=O)Nc1cccc(C(F)(F)F)c1)C(=S)Nc1ccccc1Cl (stereo unspecified) too.
0.254

Same read-out for O=C(c1ccco1)N1CCC(c2ccccc2)C1 (stereo unspecified) ?
0.201

Provenance of the data: the supplement of paper PMC4371806
